Ref: PubChem BioAssay (NCI)

Test system: OVCAR-4 ovarian
Method description: NCI-60 one-dose screen, 48 h
Condition parameters: 10 µM unless noted
About 83,000 compounds went through this panel and 20% of them were active in at least one assay; those are over-represented in the sample as a whole. Active and inactive are the calls of the source. Rule for the calls: active = growth percent below 10; inactive = the rest.
Your answer must be one of the following: active, inactive

Kindly provide the recorded test outcome for the following compound: CC(=O)OC1Oc2cc(C)c(C)cc2-c2oc(=O)c(-c3ccccc3)cc21 (centres undefined) inactive

Record request — test call for Nc1ccccc1C#Cc1ccccc1C#Cc1ccc(OCCCCCCOc2ccc(C#Cc3ccccc3C#Cc3ccccc3N)cc2)cc1 inactive

How did this test come out for CC(=O)N1N=C(c2ccc(Nc3ccnc4cc(Cl)ccc34)cc2)CC1c1ccc(Cl)cc1 (centres undefined) ? inactive

What did the test return for Nc1ccc(Oc2c(F)c(F)c(Oc3ccc(N)cc3)c(F)c2F)cc1 ? inactive

Which outcome was entered for the compound O=C1Nc2ccc(C(=O)O)c(O)c2C1=O in this test? inactive

Check the results log: what was the call for O=C(CSc1nnc(-c2cc(-c3ccccc3)nc3ccccc23)o1)c1ccc(Br)cc1 ? inactive

Short answer needed: outcome of this test for COc1cccc(-c2nc3cc(NC(=O)c4ccc(Cl)c(C#N)c4)ccc3o2)c1 ? active

Hello, I am checking results. What call was entered for NS(=O)(=O)c1cc(C2(O)NC(=O)c3ccccc32)ccc1Cl (centres undefined) ? inactive

Could you kindly confirm the outcome this assay logged for COc1cc(/C=C/C(=O)CC(=O)/C=C/c2ccc(OC(=O)CCNC34CC5CC(CC(C5)C3)C4)c(OC)c2)ccc1OC(=O)CCNC12CC3CC(CC(C3)C1)C2 ? inactive

What classification did COc1ccc([N+](=O)[O-])c(S(=O)(=O)c2ccc(Cl)cc2)n1 end up with in this test? inactive

What was the test verdict on CC1c2ccccc2-c2ccccc2N1C (centres undefined) ? inactive

Any idea what this test logged for O=C(/C=C(\Nc1ccccc1)c1ccccc1)c1cn(-c2ccc([N+](=O)[O-])cc2)nn1 ? inactive

Each compound tested received a call. Report the one for COc1cc(/C=N/NC(=O)c2ccc(C(F)(F)F)nc2Nc2ccc(Cl)cc2C)ccc1O . inactive

What did this assay record as the result for O=C(Nc1ccc2c(c1)C(=O)c1ccccc1-2)c1ccccc1 ? inactive

How was C/C(=C\CCc1ccsc1)CC/C=C(\C)CCCN1CCSCC1 classified in this test? inactive

Please indicate how the test categorized Nc1nc(SCc2cccnc2)c2ncn(C3OC(CO)C(O)C3O)c2n1 (centres undefined) . inactive

Each compound tested received a call. Report the one for CC1CN(/N=C/c2ccc([N+](=O)[O-])o2)C(=N)O1 (centres undefined) . inactive

For C=C1CCC2C3(C)COC(c4ccccc4)OC3CCC2(C)C1C/C=C1/C(=O)OCC1OC(C)=O (centres undefined) , what call appears in the results of this test? inactive

GET /call?item= C[C@H]1O[C@@H](O[C@H]2[C@@H](O)C[C@H](O[C@H]3[C@@H](O)C[C@H](O[C@H]4CC[C@]5(C)C6CC[C@]7(C)[C@@H](C8=CC(=O)OC8)CC[C@]7(O)C6CC[C@@H]5C4)O[C@@H]3C)O[C@@H]2C)C[C@H](O)[C@@H]1O (some centres undefined) returns the recorded outcome of this test. active

###

System: SR leukemia
Method description: NCI-60 one-dose screen, 48 h (100 = growth as untreated, 0 = no growth, -100 = all killed)
Condition parameters: 10 µM unless noted
This is part of a sample that, as a whole, favours compounds with a hit. Of some 83,000 tested, about 20% had one in any assay. Activity calls are given as the source filed them. How the source made its calls: active means growth percent below 10; inactive means the rest.
Measured parameter: growth

Which growth value is on record for COc1ccc(C2=NN(C(N)=S)C(c3ccc4c(c3)OCO4)C2)cc1 (configuration not stated) ? 4.75% (active)

Return reported growth; argument: O=C1C(=O)c2c(nc3ccc(Cl)cn23)-c2ccccc21 -86.5% (active)

Which growth is listed for Nc1ncnc2c1CN(Cc1ccccc1)CC2 ? 94.6% (inactive)

Look up growth: Cc1ccc2nc(SCC(=O)Nc3ccc(-c4nc5ccccc5s4)c(Cl)c3)[nH]c2c1 97.2% (inactive)

Value lookup for growth; key = CC(C)N(Cc1ccccc1)c1c(S)ssc1=S 2.98% (active)

What value of measured growth is listed for O=C(COc1ccc(/C=C2\Oc3ccc4ccccc4c3C2=O)cc1)c1ccc(Cl)cc1 ? 26.8% (inactive)

I'd like to know its growth. The compound in question is COc1ccc(-c2cc(-c3cccnc3)nc(S(=O)(=O)CC(=O)Nc3ccc(C)cc3)c2C#N)cc1OC 77.4% (inactive)

Name the reported growth value associated with the compound c1ccc(-c2n(Cc3ccc4ccccc4c3)cc[n+]2Cc2ccc3ccccc3c2)cc1 -42.2% (active)

Requested field: growth. Item: CCOC(=O)C(C(=O)OCC)C1CCCCC1 97.3% (inactive)

Can you look up the measured growth of COc1cccc(-c2nc3cc(NC(=O)c4ccc(Cl)c(C#N)c4)ccc3o2)c1 for me? 38.2% (inactive)

// growth lookup, key: CCN(CC)CCSc1ncnc2c1cnn2-c1ccc(S(N)(=O)=O)cc1 57% (inactive)

Would you kindly share the measured growth for CCOc1cc(/C=C/C(=O)CC(=O)/C=C/c2ccc(OC(=O)CNc3nc4ccc(OC)cc4s3)c(OCC)c2)ccc1OC(=O)CNc1nc2ccc(OC)cc2s1 ? -27.3% (active)

Recorded growth of COc1cc(-c2nc3nc4sc(C)c(C)c4c(=O)n3[nH]2)cc(OC)c1OC , please. 30.7% (inactive)

Consider the compound COc1cc(/C=N/NC(=O)c2ccc(C(F)(F)F)nc2Nc2ccc(Cl)cc2C)ccc1O and give its measured growth. -14.6% (active)

Record request: growth value, item COc1cc(Cl)cc(-c2nn(-c3cccc(NC(=O)c4cc(C(F)(F)F)cc(C(F)(F)F)c4)c3)cc2-c2ccncc2)c1 41% (inactive)

// growth lookup, key: O=C(O)c1ccc2cccnc2c1O 5.47% (active)

Name the reported growth value associated with the compound CCN(CC)CCCCCCCNc1c2ccc(Cl)cc2nc2ccc(OC)cc12 -16.5% (active)

Please look up its growth: CNc1nc(NC2CCCC2)nc(Sc2ccc(OC)cc2)n1 -0.593% [100 µM] (active)

// query growth value for entry c1ccc(COc2ccc(Nc3ncnc4c3cnn4-c3ccccc3)cc2)cc1 91.9% (inactive)

Any idea what growth was measured for NC(=O)c1cc(Cl)ccc1NC(=O)c1ccccc1-c1ccccc1 ? 5.82% (active)

What value of growth has been recorded for this entry: CCCCCc1c(C)[nH]c(/C=C2\N=C(c3ccc[nH]3)C=C2Oc2ccccc2)c1C 8.8% [100 µM] (active)

Recorded growth of COC(=O)Nc1ccc2ccc3c(NC(=O)OC)ccc4ccc1c2c43 (tested in a mixture with another compound) , please. 24.1% (inactive)

Field request: growth | item: O=CN1N=C(c2ccc(Cl)cc2)CC1c1cccc(Nc2ccnc3cc(Cl)ccc23)c1 (configuration not stated) 1.88% (active)

Quick one: growth for O=C(NC1CCS(=O)(=O)C1)c1ccc(C(=O)c2ccccc2)cc1 (configuration not stated) ? 133% (inactive)

Given the compound COc1ccc2c3c(ccc2c1)C(=O)/C(=C\O)CC3 , what is its reported growth? 94.6% (inactive)

Which growth is reported for this compound? O=C1/C(=C/c2ccccc2O)C(=S)SN1Cc1ccco1 -9.87% (active)

Any idea what growth was measured for CC(=O)Nc1ccc(C(=O)COc2ccc(/C=C3\CCc4ccccc4C3=O)cc2)cc1 ? 84.4% (inactive)

# input compound: CC1C(C)N(C(=O)CCl)c2ccccc2N1C(=O)CCl (configuration not stated) ; wanted: its growth -29.6% (active)

Return reported growth; argument: O=C1OC(Oc2ccccc2)(c2ccccc2)c2ccccc21 (configuration not stated) 79.1% (inactive)

// growth lookup, key: COC(=O)[C@H](Cc1cn(C)cn1)NC(=O)[C@H](Cc1ccccc1)NC(=O)Nc1cc(C(F)(F)F)cc(C(F)(F)F)c1 -39% [100 µM] (active)

What measured growth goes with COc1ccc(-n2cnc3cc(C(=O)N4CCCCC4)ccc32)cc1 ? 94.9% (inactive)

Which growth is reported for this compound? C/C(=C\CCc1ccoc1)CC/C=C(\C)CCCC1COC(=O)C1 (configuration not stated) 100% (inactive)

Any idea what growth was measured for O=c1[nH]cc(Nc2cc(Cl)c3nonc3c2[N+](=O)[O-])c(=O)[nH]1 ? 100% (inactive)

Return reported growth; argument: CCOC(=O)c1sc(NC(=O)COc2ccc(/C=C3\CCc4cc(OC)ccc4C3=O)cc2)nc1C 44.3% (inactive)

Give its growth value. Item: CCOC(=O)c1sc(NC(=O)COc2cccc(/C=C3\CCc4cc(OC)ccc4C3=O)c2)nc1C -19.4% (active)

What value of growth has been recorded for this entry: COc1cccc(/C=N/Nc2nc3ccccc3s2)c1OC 45.9% (inactive)

Report growth for O=C1c2cccc3c([N+](=O)[O-])ccc(c23)C(=O)N1CCCCl please. -6.13% [100 µM] (active)

What growth value was documented for this compound, CC(NNC(=S)N1CCCCCC1)c1ccc2ccccc2n1 (configuration not stated) ? 34.5% (inactive)

# growth lookup, item [N-]=[N+]=NCc1ncc(-c2ccc(C(F)(F)F)cc2)c(NC2CCCCCC2)n1 5.36% [50 µM] (active)

Record request: growth value, item CCCCNCCCN(CCCC)CCCNCCCC 108% (inactive)

Given Oc1ccccc1/C=N/N1CCCCCC1 , state its recorded growth. 99.3% (inactive)

Report growth for COc1ccc(NC(=O)[C@@H]2C[C@H]2c2ccccc2)c(C(N)=O)c1 please. 77.6% (inactive)
